experiment.summary: Inhibition of alpha glucosidase
Design: species or system Homo sapiens
property.measured: IC50
For clarity, give the value followed by its unit.

These solved cases illustrate the format of a correct answer.
molecular.string	property.measured	value.reported
O=C1c2c(Cl)c(Cl)c(Cl)c(Cl)c2C(=O)N1CCCCCCCCCCc1ccccc1	IC50	6.8 µM
O=C1c2c(Cl)c(Cl)c(Cl)c(Cl)c2C(=O)N1CCCc1ccccc1	IC50	4.5 µM
O=C1c2c(Cl)c(Cl)c(Cl)c(Cl)c2C(=O)N1CCCCCc1ccccc1	IC50	3.5 µM
O=C1c2ccccc2C(=O)N1c1ccccc1CCc1ccccc1	IC50	16.2 µM
O=C1c2c(Cl)c(Cl)c(Cl)c(Cl)c2C(=O)N1CCc1ccccc1	IC50	6 µM

input: Tell me its IC50 given O=C1c2c(Cl)c(Cl)c(Cl)c(Cl)c2C(=O)N1Cc1ccccc1 as the entry.
output: 10.9 µM

input: Tell me its IC50 given CCCCCCc1ccccc1N1C(=O)c2ccccc2C1=O as the entry.
output: 24.7 µM

input: Tell me its IC50 given CC(C)c1cccc(C(C)C)c1N1C(=O)c2ccccc2C1=S as the entry.
output: 8 µM

---

Listed below: inhibition values for each entry.
target: Oxysterols receptor LXR-alpha (Homo sapiens)
experiment.summary: Antagonist activity at human recombinant LXRalpha expressed in HEK293 cells assessed as inhibition of T0901317-induced transcriptional activation at 100 uM by luciferase assay
Type: functional, cell-based
Answer in %, number only, no unit symbol.

molecular.string	inhibition (%)
O=C1c2c(Cl)c(Cl)c(Cl)c(Cl)c2C(=O)N1CCc1ccccc1	38
CC(C)c1cccc(C(C)C)c1N1C(=O)c2ccccc2C1=S	94
O=C1c2c(Cl)c(Cl)c(Cl)c(Cl)c2C(=O)N1Cc1ccccc1	60
O=C1c2c(Cl)c(Cl)c(Cl)c(Cl)c2C(=O)N1CCCCCc1ccccc1	42
O=C1c2c(Cl)c(Cl)c(Cl)c(Cl)c2C(=O)N1CCCCc1ccccc1	53
CC(C)c1cccc(C(C)C)c1N1C(=O)c2c(Cl)c(Cl)c(Cl)c(Cl)c2C1=O	61

input: Tell me its inhibition given O=C1c2cc(Cl)c(Cl)cc2C(=O)N1CCCCc1ccccc1 as the entry.
output: 50

input: Tell me its inhibition given O=C1c2ccc(Cl)cc2C(=O)N1CCCCc1ccccc1 as the entry.
output: 66

input: Tell me its inhibition given O=C1c2c(Cl)c(Cl)c(Cl)c(Cl)c2C(=O)N1CCCc1ccccc1 as the entry.
output: 59

---

experiment.summary: Inhibition of alpha glucosidase
Design: species or system Homo sapiens
Listed below: pIC50 values for each entry.
Kindly note that pIC50 refers to -log10 of the concentration in mol/L and answer with the value alone.

These solved cases illustrate the format of a correct answer.
molecular.string	pIC50
CC(C)c1cccc(C(C)C)c1N1C(=O)c2c(Cl)c(Cl)c(Cl)c(Cl)c2C1=O	5.62
O=C1c2c(Cl)c(Cl)c(Cl)c(Cl)c2C(=O)N1c1ccccc1	5.59

Now for the molecule whose pIC50 we want.
input: Tell me its pIC50 given O=C1c2c(Cl)c(Cl)c(Cl)c(Cl)c2C(=O)N1CCCCc1ccccc1 as the entry.
output: 5.70
